B1: LINE1-full (parent)
chain: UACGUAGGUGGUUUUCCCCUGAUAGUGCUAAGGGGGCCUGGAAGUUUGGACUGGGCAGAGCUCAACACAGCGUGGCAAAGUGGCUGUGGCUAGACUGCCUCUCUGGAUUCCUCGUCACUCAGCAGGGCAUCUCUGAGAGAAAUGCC

# Variants of: B1
# Assay Method Text: self-cleavage, relative activity (ratio to wild type); higher = more cleavage; in vitro, sequencing; the parent is a self-cleaving ribozyme
Test Readout: self-cleavage

{"Mutation Label": "C103U A138G", "Readout Number": 1.49}
{"Mutation Label": "C61G", "Readout Number": 0.06}
{"Mutation Label": "C61U U87C", "Readout Number": 0.03}
{"Mutation Label": "U12C G82C", "Readout Number": 2.15}
{"Mutation Label": "U115C U119A", "Readout Number": 1.78}
{"Mutation Label": "G58A U96C", "Readout Number": 0.04}
{"Mutation Label": "A42C A59G", "Readout Number": 0.45}
{"Mutation Label": "U104C U112C", "Readout Number": 1.66}
{"Mutation Label": "A59G G89A", "Readout Number": 0.01}
{"Mutation Label": "U73C G125C", "Readout Number": 2.47}
{"Mutation Label": "U46C A129U", "Readout Number": 1.27}
{"Mutation Label": "U100C C111U", "Readout Number": 1.48}
{"Mutation Label": "U20A A77C", "Readout Number": 1.75}
{"Mutation Label": "A92G C113U", "Readout Number": 0.1}
{"Mutation Label": "A31U A65U", "Readout Number": 0.21}
{"Mutation Label": "C118G U132A", "Readout Number": 1.21}
{"Mutation Label": "G40A A77G", "Readout Number": 1.02}
{"Mutation Label": "G53A U134A", "Readout Number": 1.23}
{"Mutation Label": "G105A G127U", "Readout Number": 1.31}
{"Mutation Label": "U62A U104A", "Readout Number": 0.04}
{"Mutation Label": "U14C A141G", "Readout Number": 1.03}
{"Mutation Label": "U14C U143A", "Readout Number": 0.99}
